# Tested on: 253994-281-T-J1-PDC KRAS-mutant spheroids with HUVEC/MSC, viability
# test summary: Anticancer human tumor 253994-281-T-J1-PDC patient-derived colorectal carcinoma cell line growth inhibition [KRAS2]
# test parameters: second compound 10 µM; first compound 0.316 µM; hits give low values
Classify: label 1 when viability, T/C is strictly less than 10%; label 0 when viability, T/C is not.

COc1cc(Nc2ncc3c(n2)-c2ccc(Cl)cc2C(c2c(F)cccc2OC)=NC3)ccc1C(=O)O + CNCc1ccccc1-c1csc(C(C)Nc2nc(C)nc3cc(OC)c(OC)cc23)c1 ... label 1
CC1COCCN1c1cc(-c2ccnn2C)c2ccnc(-c3ccn[nH]3)c2n1 (stereo not given) + C=CC(=O)N1CCN(c2nc(=O)n(-c3c(C)ccnc3C(C)C)c3nc(-c4c(O)cccc4F)c(F)cc23)C(C)C1 ... label 0
CC(=O)OC12COC1CC(O)C1(C)C(=O)C(O)C3=C(C)C(OC(=O)C(O)C(NC(=O)OC(C)(C)C)c4ccccc4)CC(O)(C(OC(=O)c4ccccc4)C21)C3(C)C (stereo not given) + CC1OCC2(CCN(c3cnc(Sc4ccnc(N)c4Cl)c(N)n3)CC2)C1N ... label 0
CCNC(=O)CC1N=C(c2ccc(Cl)cc2)c2cc(OC)ccc2-n2c(C)nnc21 (stereo not given) + COc1cc2nc(C)nc(NC(C)c3cc(N)cc(C(F)(F)F)c3)c2cc1OC1CCOC1 ... label 0
CC1COCCN1c1cc(-c2ccnn2C)c2ccnc(-c3ccn[nH]3)c2n1 (stereo not given) + CNCc1ccccc1-c1csc(C(C)Nc2nc(C)nc3cc(OC)c(OC)cc23)c1 ... label 1

====

# Tested on: 253994-281-T-J1-PDC KRAS-mutant spheroids with HUVEC/MSC, viability
# test summary: Anticancer human tumor 253994-281-T-J1-PDC cell line growth inhibition [KRAS2];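 further: spheroids exposed to agents for seven days before readout; percent of DMSO vehicle control viability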
# test parameters: second compound 0.0316 µM; first compound 0.0316 µM; hits give low values
parameter measured: viability, T/C (%)

CC(C)n1nc(-c2ccc3oc(N)nc3c2)c2c(N)ncnc21 + C=CC(=O)N1CCN(c2nc(OCC3CCCN3C)nc3c2CCN(c2cccc4cccc(C)c24)C3)CC1CC#N ... 84
O=C(c1cc(Cc2n[nH]c(=O)c3ccccc23)ccc1F)N1CCN(C(=O)C2CC2)CC1 + C=CC(=O)N1CCN(c2nc(OCC3CCCN3C)nc3c2CCN(c2cccc4cccc(C)c24)C3)CC1CC#N ... 108
CN(C)C/C=C/C(=O)Nc1cc2c(Nc3ccc(F)c(Cl)c3)ncnc2cc1O[C@H]1CCOC1 + C=CC(=O)N1CCN(c2nc(OCC3CCCN3C)nc3c2CCN(c2cccc4cccc(C)c24)C3)CC1CC#N ... 88.5
CC(=O)Nc1cccc(-n2c(=O)n(C3CC3)c(=O)c3c(Nc4ccc(I)cc4F)n(C)c(=O)c(C)c32)c1 + C=CC(=O)N1CCN(c2nc(OCC3CCCN3C)nc3c2CCN(c2cccc4cccc(C)c24)C3)CC1CC#N ... 6.91
COc1cc2nccc(Oc3ccc(NC(=O)C4(C(=O)Nc5ccc(F)cc5)CC4)cc3)c2cc1OC + C=CC(=O)N1CCN(c2nc(OCC3CCCN3C)nc3c2CCN(c2cccc4cccc(C)c24)C3)CC1CC#N ... 88.8
CC1COCCN1c1cc(-c2ccnn2C)c2ccnc(-c3ccn[nH]3)c2n1 (configuration not stated) + C=CC(=O)N1CCN(c2nc(OCC3CCCN3C)nc3c2CCN(c2cccc4cccc(C)c24)C3)CC1CC#N ... 101
COc1cc(Nc2ncc3c(n2)-c2ccc(Cl)cc2C(c2c(F)cccc2OC)=NC3)ccc1C(=O)O + C=CC(=O)N1CCN(c2nc(OCC3CCCN3C)nc3c2CCN(c2cccc4cccc(C)c24)C3)CC1CC#N ... 74.5
Cn1nccc1Nc1nccc(-c2cc3c(s2)C(C)(C)N(CCN2CCOCC2)C3=O)n1 + C=CC(=O)N1CCN(c2nc(OCC3CCCN3C)nc3c2CCN(c2cccc4cccc(C)c24)C3)CC1CC#N ... 92.7
COC(=O)c1ccc2c(C(=Nc3ccc(N(C)C(=O)CN4CCN(C)CC4)cc3)c3ccccc3)c(O)[nH]c2c1 + C=CC(=O)N1CCN(c2nc(OCC3CCCN3C)nc3c2CCN(c2cccc4cccc(C)c24)C3)CC1CC#N ... 101
CC(C)NCC(C(=O)N1CCN(c2ncnc3c2C(C)CC3O)CC1)c1ccc(Cl)cc1 (configuration not stated) + C=CC(=O)N1CCN(c2nc(OCC3CCCN3C)nc3c2CCN(c2cccc4cccc(C)c24)C3)CC1CC#N ... 104
CC1OCC2(CCN(c3cnc(Sc4ccnc(N)c4Cl)c(N)n3)CC2)C1N (configuration not stated) + C=CC(=O)N1CCN(c2nc(OCC3CCCN3C)nc3c2CCN(c2cccc4cccc(C)c24)C3)CC1CC#N ... 112
CCNC(=O)CC1N=C(c2ccc(Cl)cc2)c2cc(OC)ccc2-n2c(C)nnc21 (configuration not stated) + C=CC(=O)N1CCN(c2nc(OCC3CCCN3C)nc3c2CCN(c2cccc4cccc(C)c24)C3)CC1CC#N ... 101
